test system: Clostridium perfringens SM101; type: cell-based; parameters: unit not given here; details: bacterial cells, 500 mM, without AG; 8 hours, diluted 100 times
Each entry below carries its reported Zeta potential.

CPD_SMILES	TARGET_DESC	Zeta potential
[Cl-].[Cl-].[Mg+2]	Clostridium perfringens SM101	−12.1
[Cl][Fe][Cl]	Clostridium perfringens SM101	4.1
[Ca+2].[Cl-].[Cl-]	Clostridium perfringens SM101	−14.3
[Cl-].[K+]	Clostridium perfringens SM101	−30.2

###

tested on: Clostridium perfringens ATCC10873; format: cell-based; settings: absence of AG; Example 2 strains
ASSAY_READOUT: Agglomeration (text)

CPD_SMILES	TARGET_DESC	RECORDED_VALUE
[Cl-].[K+]	Clostridium perfringens ATCC10873	did not agglomerate
[Cl-].[Na+]	Clostridium perfringens ATCC10873	did not agglomerate
